# testedOn: 20S proteasome extracted from rat liver (T-L) (Rattus norvegicus, UniProt P40112+Q9JHW0)
# Construct: 20S proteasome extracted from rat liver; from tissue; host or cells: rat liver
# testDetails: inhibition of 20S proteasome, T-L activity (fluorescent peptide)
# Format: biochemical
# runParameters: 2 μM; rat liver 20S proteasome, 37° C., 1 h; read-out: inhibition rates (%) T-L
# Procedure: 1 μg of 20S proteasome extracted from rat liver was incubated with a 100 μL solution containing various concentrations of the present compounds, 50 μM fluorescent peptides and 20 mM Tris-HCl at 37° C. for 1 h, respectively. […] 0.1% DMSO was used as a solvent control. Compared with the fluorescence of solvent control, an inhibition rate or IC50 value was calculated.
So basically, the class depends on measured inhibition at 2 µM, and the ranges are lower = under 20%, middle = from 20% up to 50%, upper = 50% and over

Answered cases to consult:
COc1ccc(OC)c(CNC(=O)N[C@@H](Cc2ccccc2)C(=O)N[C@@H](CC(C)C)B2OC3CC4CC(C4(C)C)[C@]3(C)O2)c1 (stereo partly drawn) ... upper
COc1ccc(CNC(=O)[C@H](Cc2ccccc2)NC(=O)N[C@@H](CC(C)C)B(O)O)cc1 ... middle
CC(C)C[C@H](NC(=O)[C@H](Cc1ccccc1)NC(=O)Nc1cnccn1)B(O)O ... lower
CC(C)C[C@H](NC(=O)N[C@@H](Cc1ccccc1)C(=O)N[C@@H](CC(C)C)C(=O)Nc1cnccn1)B(O)O ... middle
CC(C)C[C@H](NC(=O)N[C@@H](Cc1ccccc1)C(=O)Nc1cnccn1)B(O)O ... lower

Exam item: Band assignment needed for `CC(C)C[C@H](NC(=O)[C@H](Cc1ccccc1)NC(=O)N[C@@H](Cc1ccccc1)C(=O)Nc1cnccn1)B(O)O` please.
Marked response: middle
